Below, each of the binders is paired with its reported EC50 value.
Biological target: T1, Human PD-1 expressed on CHO-K1 cells (CHO-K1/hPD-1) (human, UniProt Q15116 25-288)
T1 construct: whole, on cells; also called CHO-K1 cells overexpressing human PD-1
T1 sequence (Q15116 25-288): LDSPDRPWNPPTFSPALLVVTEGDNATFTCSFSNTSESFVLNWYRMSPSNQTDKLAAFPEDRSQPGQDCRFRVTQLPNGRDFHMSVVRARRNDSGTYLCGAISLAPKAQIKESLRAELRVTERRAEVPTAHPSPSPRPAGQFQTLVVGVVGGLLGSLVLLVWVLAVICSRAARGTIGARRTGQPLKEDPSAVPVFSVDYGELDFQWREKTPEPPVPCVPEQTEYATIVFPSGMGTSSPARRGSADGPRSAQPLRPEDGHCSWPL
Test: FACS, CHO-K1/hPD-1 cells
// units = nM; emit number, no label

PR005098 (VHH, Monovalent single-domain (VH) variant of PR002481 with Flag-6His tag) VHH: EVQLVETGGGLIQPGGSLRLSCAASGFNVSSHYMSWVRQAPGKGREWVSIIDGGGSTYYADSVKGRFTISRDNSKNRLYLQMNSLRAEDTAMYYCARATQVREKGGYNYPFNYWGQGTLVTVSS : 18.4

The record that follows has no EC50 shown yet.
Query: Recall and state the measured EC50 for PR005097 (VHH, Monovalent single-domain (VH) variant of PR002481 with Flag-6His tag) VHH: EVQLVETGGGLIQPGGSLRLSCAASGFNVSSHYMSWVRQAPGKGREWVSIIDGGGSTYYADSVKGRFTISRDNSKNRLYLQMNSLRAEDTAMYYCARATAVREKNGYNYPFNYWGQGTLVTVSS .
Result: 17.9
